Where do these numbers come from? They come from patent US20220323406A1.

# System: ENR+CD organoids (ISC to Paneth cell differentiation)
# measurement_notes: Primary screen: basal (non-stimulated) lysozyme secretion LYZ.NS, 2.5-D 384-well ENR+CD organoid differentiation
# Format: cell-based, mouse
# setup_conditions: primary screen, dose 0.08 uM, standard z score
Where a name gives a salt, the structure may show the parent alone.

compound: CC(C)CC(=O)Nc1[nH]nc2c1CN(C(=O)C1CCN(C)CC1)C2(C)C
Z.LYZ.NS: 0.275
--
compound: FC(F)(F)c1ccc(/C=C/c2nc(COc3ccc(CCCCn4ccnn4)cc3)co2)cc1
Z.LYZ.NS: −0.500
--
compound: Nc1ncnc2c1c(-c1cccc(OCc3ccccc3)c1)cn2C1CC(CN2CCCC2)C1 (centres unmarked)
Z.LYZ.NS: 1.239
--
compound: C[C@]1(O)C[C@@H](c2nc(-c3ccc4ccc(-c5ccccc5)nc4c3)c3c(N)nccn32)C1
Z.LYZ.NS: 0.110
--
compound: CC(C)(F)C[C@H](N[C@@H](c1ccc(-c2ccc(S(C)(=O)=O)cc2)cc1)C(F)(F)F)C(=O)NC1(C#N)CC1
Z.LYZ.NS: 0.752
--
compound: CNC(=O)c1ccc2cc([C@@]3(O)CCn4cncc43)ccc2c1
Z.LYZ.NS: 1.535
--
compound: CCc1cncnc1N1CCN(Cc2nc3ccc(C(F)(F)F)cc3[nH]2)CC1
Z.LYZ.NS: 0.654
--
compound: Cc1ccccc1C(=O)Nc1ccc(C(=O)N2CCCC(N(C)C)c3ccccc32)cc1 (centres unmarked)
Z.LYZ.NS: 0.584
--
compound: S=C=Nc1cccc(NC(=S)NCCCCNC(=S)Nc2cccc(N=C=S)c2)c1
Z.LYZ.NS: 1.011
--
compound: CN(C)CCc1c[nH]c2ccc(Cn3cncn3)cc12 [Rizatriptan Benzoate]
Z.LYZ.NS: 0.613
--
compound: O=C1CC(=O)c2c(Cl)c(Cl)c(Cl)c(Cl)c21
Z.LYZ.NS: 0.431
--
compound: NC(=O)N1c2ccccc2CC(=O)c2ccccc21 [Oxcarbazepine]
Z.LYZ.NS: 0.035
--
compound: CC(C)(C)c1cnc(CSc2cnc(NC(=O)C3CCNCC3)s2)o1
Z.LYZ.NS: 0.428
--
compound: Cc1cc(OCc2nnc(SC3CCCC3)n2-c2cccnc2)ccc1-c1ccc(S(C)(=O)=O)cc1
Z.LYZ.NS: 0.853
--
compound: O=C(O)/C=C/c1ccc(Cn2ccnc2)cc1 [Ozagrel HCl]
Z.LYZ.NS: 1.756
--
compound: CC(=O)c1c(C)c2cnc(Nc3ccc(N4CCNCC4)cn3)nc2n(C2CCCC2)c1=O.Cl [Palbociclib (PD-0332991) HCl]
Z.LYZ.NS: −0.055
--
compound: O=C(NC[C@H]1CN(c2ccc(N3CCOCC3=O)cc2)C(=O)O1)c1ccc(Cl)s1
Z.LYZ.NS: 0.941

###

Measured Dose.FC.CTG, listed per entry for reference.
# System: ENR+CD organoids
# measurement_notes: Primary screen: ATP (CellTiter-Glo 3D, CTG) cell number/viability, 2.5-D 384-well ENR+CD organoids
# setup_conditions: primary screen, dose 2.00 uM

compound: Cc1ccccc1C(C(=O)NC1CCCCC1)N(C(=O)Cn1ccnc1C)c1cccc(F)c1 (stereo not shown)
Dose.FC.CTG / log2 fold change: 0.281

compound: CN1CCc2cc3c(cc2[C@H]1[C@@H]1OC(=O)c2c1ccc1c2OCO1)OCO3 [(+)-Bicuculline]
Dose.FC.CTG / log2 fold change: −0.166

compound: CC(C)CCN1c2nc(Nc3cc(F)c(O)c(F)c3)ncc2N(C)C(=O)C1C (stereo not shown)
Dose.FC.CTG / log2 fold change: −0.012

compound: C=C1C(=O)O[C@@H]2/C=C(\C)CC/C=C(\C)CC[C@@H]12 [Costunolide]
Dose.FC.CTG / log2 fold change: 0.050

###

# Test system: ENR+CD organoids
# measurement_notes: Primary screen: ATP (CellTiter-Glo 3D, CTG) cell number/viability, 2.5-D 384-well ENR+CD organoids
# setup_conditions: primary screen, dose 0.08 uM
Structures can show the parent of a compound that is named as a salt.
Sorting guide: entries reporting Dose.FC.CTG (log2 fold change) beneath -0.05 go in the rule met pile, the rest go in the rule not met pile.

molecule: CC1=C(C(=O)Nc2cc3cn[nH]c3cc2F)C(c2ccc(C(F)(F)F)cc2)CC(=O)N1 (stereo not shown) [GSK429286A]
assigned_category: rule not met
//
molecule: Cc1ccc(NC(=O)c2ccc(CN3CCN(C)CC3)cc2)cc1Nc1nccc(-c2cccnc2)n1 [Imatinib (STI571)]
assigned_category: rule met
//
molecule: Cc1cc(Nc2cc(CN3CCOCC3)c3nc(C)c(Cc4ccc(Cl)cc4F)n3n2)n[nH]1
assigned_category: rule not met
//
molecule: CCc1cc(Nc2nccc(-c3c(-c4ccc(OC)c(C(=O)Nc5c(F)cccc5F)c4)nc4ccccn34)n2)c(OC)cc1N1CCC(N2CCN(S(C)(=O)=O)CC2)CC1 [GSK1904529A]
assigned_category: rule not met
//
molecule: Cn1cc(/C=C2\C(=O)Nc3cccnc32)c2ccccc21
assigned_category: rule not met
//
molecule: O=C(C[S+]([O-])Cc1ccco1)NC/C=C\COc1cc(CN2CCCCC2)ccn1 (stereo not shown)
assigned_category: rule not met
//
molecule: CC12CC3CC(C)(C1)CC(N)(C3)C2 [Memantine HCl]
assigned_category: rule not met
//
molecule: CCN(CC)CC(=O)Nc1c(C)cccc1C
assigned_category: rule met
//
molecule: CN(Cc1cnc2nc(N)nc(N)c2n1)c1ccc(C(=O)N[C@@H](CCC(=O)O)C(=O)O)cc1 [Methotrexate]
assigned_category: rule met

###

# Test system: ENR+CD organoids (ISC to Paneth cell differentiation)
# measurement_notes: Primary screen: basal (non-stimulated) lysozyme secretion LYZ.NS, 2.5-D 384-well ENR+CD organoid differentiation
# Type: cell-based, mouse
# setup_conditions: primary screen, dose 2.00 uM, FC relative to plate median
Rule: measured Dose.FC.LYZ.NS below 0.05 log2 fold change gets Fulfilled; anything equal to or greater than 0.05 log2 fold change gets Not fulfilled.

compound: COc1cc(Br)c(Nc2nc(-c3c(C)nc4ncccn34)cs2)c(Br)c1
assigned_category: Fulfilled

compound: Cc1cn([C@H]2C=C[C@@H](CO)O2)c(=O)[nH]c1=O
assigned_category: Fulfilled

compound: CN1CC(=O)N2[C@H](c3ccc4c(c3)OCO4)c3[nH]c4ccccc4c3C[C@@H]2C1=O
assigned_category: Not fulfilled

compound: COc1cc2c(cc1OC)[C@@H]1Cc3ccc(OC)c(OC)c3CN1CC2
assigned_category: Not fulfilled

compound: Cc1cc(Nc2ccc(NC(=O)c3ccc(Nc4ccnc5ccccc45)cc3)cc2)nc(N)n1
assigned_category: Not fulfilled

compound: Cc1[nH]c(/C=C2\C(=O)Nc3ccc(S(=O)(=O)N(C)c4cccc(Cl)c4)cc32)c(C)c1C(=O)N1CCN(C)CC1
assigned_category: Fulfilled

compound: Nc1ccc(C(=O)[O-])c(O)c1.[Na+] [Sodium 4-Aminosalicylate]
assigned_category: Not fulfilled

compound: O=C(Nc1cc(C(F)(F)F)ccc1N1CCCCC1)c1ccncc1
assigned_category: Not fulfilled

compound: C[S+]([O-])c1ccc(-c2nc(-c3ccc(F)cc3)c(-c3ccncc3)[nH]2)cc1 (stereo not shown)
assigned_category: Not fulfilled

compound: CN1CCN(c2nc(C3=C(c4c[nH]c5ccccc45)C(=O)NC3=O)c3ccccc3n2)CC1
assigned_category: Fulfilled

###

# Test system: ENR+CD organoids
# measurement_notes: Primary screen: ATP (CellTiter-Glo 3D, CTG) cell number/viability, 2.5-D 384-well ENR+CD organoids;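 note: compounds given at plating and again on day 3 over a 6-day differentiation from ENR+CV stem-cell-enriched precursors, ATP measured on day 6, plate median as control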
# setup_conditions: primary screen, dose 0.40 uM, standard z score
Measured Z.CTG by item

molecule: Nc1ncnc2c1c(-c1cccc(OCc3ccccc3)c1)cn2C1CC(CN2CCCC2)C1 (stereo not drawn)
Z.CTG: 1.583
//
molecule: CN1C(=O)C(Cc2c[nH]c3ccccc23)NC1=S (stereo not drawn)
Z.CTG: 0.401
//
molecule: Cl.NC(=O)c1cnc(N[C@@H]2CCCC[C@@H]2N)nc1Nc1cccc(-n2nccn2)c1 [PRT062607 (P505-15, BIIB057) HCl]
Z.CTG: 0.191
//
molecule: C/C(=N\NC(=S)N1CCC1)c1ccccn1
Z.CTG: −0.441
//
molecule: O=C(NNc1ccccc1)c1ccncc1
Z.CTG: −0.226
//
molecule: CN(c1ncccc1CNc1nc(Nc2ccc3c(c2)CC(=O)N3)ncc1C(F)(F)F)S(C)(=O)=O
Z.CTG: −0.518
//
molecule: CCCC(=O)Nc1cccc(NC(=O)c2ccccc2Br)c1
Z.CTG: 0.067
//
molecule: COc1ccc(-c2cnc3c(-c4cccc5ncccc45)cnn3c2)cc1
Z.CTG: 0.500
//
molecule: S=C=Nc1cccc(NC(=S)NCCCCNC(=S)Nc2cccc(N=C=S)c2)c1
Z.CTG: 0.146
//
molecule: CC(C)(C)c1cnc(CSc2cnc(NC(=O)C3CCNCC3)s2)o1
Z.CTG: −0.198
//
molecule: Cc1nnc(C(=O)NC(C)(C)c2nc(C(=O)NCc3ccc(F)cc3)c(O)c(=O)n2C)o1
Z.CTG: 0.224
//
molecule: Cc1cnc(-c2cc(N3CCN(C(=O)CCS(C)(=O)=O)CC3)ncc2Cl)c(C)c1
Z.CTG: −0.096
//
molecule: CC(=O)O[C@H]1C[C@@H]2CC[C@@H]3[C@H](CC[C@@]4(C)[C@H]3C[C@H]([N+]3(C)CCCCC3)[C@@H]4OC(C)=O)[C@@]2(C)C[C@@H]1[N+]1(C)CCCCC1.[Br-].[Br-] [Pancuronium dibromide]
Z.CTG: 0.541
//
molecule: CC[C@@H]1/C=C/C=C/C[C@H](C)[C@H](O)[C@](C)(O)C(=O)[C@H](C)[C@@H](O)[C@H](C)C(=O)[C@H](C)[C@@H](O)[C@H](C)/C=C/C(=O)O[C@H]2[C@@H](C)[C@@H](CC1)O[C@@]1(CC[C@@H](C)[C@@H](C[C@H](C)O)O1)[C@@H]2C
Z.CTG: −1.685
//
molecule: CC(C)[C@H](O)C(=O)N[C@@H](C)C(=O)N[C@@H]1C(=O)N(C)CCc2ccccc21
Z.CTG: −0.494
